Tested on: Staphylococcus aureus
Assay: Antibacterial activity against Staphylococcus aureus subsp. aureus Newman assessed as growth inhibiiton after 18 hrs
Assay type: functional
endpoint name: MIC
Quick note: number first, unit second.

Illustrative cases are given below, each with its answer.
molecule_smiles=CCN(Cc1ccccc1)C(=O)Nc1cc(-c2cccc(Cl)c2)sc1C(=O)O measured="21 µg/mL"
molecule_smiles=O=C(NCCc1ccccc1)Nc1cc(-c2ccc(Cl)c(Cl)c2)sc1C(=O)O measured="6 µg/mL"
molecule_smiles=CCN(Cc1ccccc1)C(=O)Nc1cc(-c2ccc(Cl)cc2Cl)sc1C(=O)O measured="12 µg/mL"

Would you kindly look at the next entry?
[ask] Return value of MIC for input "CCN(Cc1ccccc1)C(=O)Nc1cc(-c2ccc(Cl)c(C(F)(F)F)c2)sc1C(=O)O" , no commentary.
[reply] 5 µg/mL
